# SUBJECT_OF_TEST: T1, human CD137-His6 (Sino Biological #10041-H08H) (human, UniProt Q07011 24-186)
# T1 construct: Bought; also called human CD137 protein; not shown: His6 tag
# PROTOCOL_TEXT: SPR Biacore, IgG
Could you please report measured pKd for the items listed next?
Convention used: pKd is expressed as -log10 of the molar concentration.

Fill in the blank: the reported pKd of AG10054 (antibody, human IgG4 S228P, kappa, V domains shown, also called IgG of Fab 4072) VH: EVQLVESGGGLVQPGGSLRLSCAASGFSLSTSGVAVSWIRQAPGKGLEWIGIINPNFGDTNYAQKFQGRVTISRDNSKNTLYLQLNSLRAEDTAVYYCARDEYYGGSYYFDYWGQGTLVTVSS VL: DIQLTQSPSSLSASVGDRVTITCRASQDVRTAVAWYQQKPGKAPKLLIYDASNLETGVPSRFSGSGSGTDFTLTISSLQPEDFATYYCQQSYDWPPTFGQGTKVEIKR is ____. 7.89

// pKd lookup, key: AG10081 (antibody, human IgG4 S228P, kappa, V domains shown, also called IgG of Fab 5299) VH: EVQLVESGGGLVQPGGSLRLSCAASGYSISSGHYWGWIRQAPGKGLEWLALIDWYGDKYYSTSLKSRLTISRDNSKNTLYLQLNSLRAEDTAVYYCARSDYYGSHFDYWGQGTLVTVSS VL: DIQLTQSPSSLSASVGDRVTITCRASESVDFDGFSFLAWYQQKPGKAPKLLIYDASNLETGVPSRFSGSGSGTDFTLTISSLQPEDFATYYCQQYDTLPRTFGQGTKVEIKR 8.16

I would be grateful if you could share the reported pKd for AG10085 (antibody, human IgG4 S228P, kappa, V domains shown, also called IgG of Fab 5367) VH: EVQLVESGGGLVQPGGSLRLSCAASGFSLSTSGVGVGWIRQAPGKGLEWVSGISGAGDSTYYADSVKGRFTISRDNSKNTLYLQLNSLRAEDTAVYYCAREGSDTVLGDWFAYWGQGTLVTVSS VL: DIQLTQSPSSLSASVGDRVTITCRASQDIRSYLAWYQQKPGKAPKLLIYDASNRATGIPSRFSGSGSGTDFTLTISSLQPEDFATYYCQQGYSIWTFGQGTKVEIKR . 7.27
